The entries below come with measured Mean % WT Binding values attached.
Biological target: human CD33 L229A (human, UniProt P20138 18-364)
Sequence (P20138 18-364 L229A limits assumed): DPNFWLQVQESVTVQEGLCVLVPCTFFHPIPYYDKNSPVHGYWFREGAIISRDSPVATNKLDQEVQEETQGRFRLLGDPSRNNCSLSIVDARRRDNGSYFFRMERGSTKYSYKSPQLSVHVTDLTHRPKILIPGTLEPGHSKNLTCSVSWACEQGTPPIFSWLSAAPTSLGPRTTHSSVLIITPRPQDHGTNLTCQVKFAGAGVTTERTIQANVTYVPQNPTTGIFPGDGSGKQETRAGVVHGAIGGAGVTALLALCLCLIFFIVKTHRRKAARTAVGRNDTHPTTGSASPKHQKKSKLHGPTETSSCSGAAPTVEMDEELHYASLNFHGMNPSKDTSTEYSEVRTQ
Assay: alanine scan, flow cytometry, HEK293-T;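 note: antibody binding to each alanine-substituted CD33 mutant expressed transiently in HEK293-T, read as fluorescence minus background, mean of duplicates, relative to wild-type CD33 set as 100%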
Recorded endpoint: Mean % WT Binding (%)

>  <Binder>
Refmab #2 (antibody, V domains shown, In the alanine scan antibodies were used as IgG or Fab) VH: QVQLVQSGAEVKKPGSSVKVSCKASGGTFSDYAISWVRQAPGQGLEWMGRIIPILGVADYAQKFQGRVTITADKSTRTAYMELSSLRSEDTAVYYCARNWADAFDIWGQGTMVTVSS VL: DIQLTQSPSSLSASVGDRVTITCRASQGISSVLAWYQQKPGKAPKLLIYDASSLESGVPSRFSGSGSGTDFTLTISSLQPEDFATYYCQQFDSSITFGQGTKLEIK

>  <Reading>
113

$$$$
>  <Binder>
Refmab #4 (antibody, V domains shown, In the alanine scan antibodies were used as IgG or Fab) VH: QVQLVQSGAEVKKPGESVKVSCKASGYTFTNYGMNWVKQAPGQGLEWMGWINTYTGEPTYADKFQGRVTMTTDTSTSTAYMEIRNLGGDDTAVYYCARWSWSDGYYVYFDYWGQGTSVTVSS VL: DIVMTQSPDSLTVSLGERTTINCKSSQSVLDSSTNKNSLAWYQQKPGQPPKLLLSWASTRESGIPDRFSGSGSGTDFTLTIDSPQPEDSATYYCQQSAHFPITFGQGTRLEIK

>  <Reading>
89.1

$$$$
>  <Binder>
Refmab #3 (antibody, V domains shown, In the alanine scan antibodies were used as IgG or Fab) VH: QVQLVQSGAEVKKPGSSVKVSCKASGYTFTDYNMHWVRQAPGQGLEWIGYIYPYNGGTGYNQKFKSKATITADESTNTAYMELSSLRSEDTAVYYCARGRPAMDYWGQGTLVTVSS VL: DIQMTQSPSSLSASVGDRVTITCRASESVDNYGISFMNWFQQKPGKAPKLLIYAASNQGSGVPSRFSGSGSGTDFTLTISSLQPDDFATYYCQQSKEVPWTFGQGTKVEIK

>  <Reading>
150

$$$$

Attribution: patent US20260242735A1
